Could you please report measured activity coefficient for the items listed next?
experiment: activity coefficient (dimensionless); of the first substance listed, at infinite dilution; xn = mol fraction of the nth substance listed; conditions: 289.97 K; Liquid; Chromatography; x1 = 0
Give bare numbers.

# count of solved cases: 7
1. CC(F)F [1,1-difluoroethane] + C1CCOCC1 | 1.67
2. CCC [propane] + C1CCOCC1 | 1.9
3. CCCC [butane] + C1CCOCC1 | 1.85
4. C=C(C)C [2-methylpropene] + C1CCOCC1 | 1.38
5. CC(C)C [2-methylpropane] + C1CCOCC1 | 1.94
6. C=CC [propene] + C1CCOCC1 | 1.43
7. C/C=C/C [(E)-2-butene] + C1CCOCC1 | 1.4

Shift focus to the following entry.
QUERY: Supply measured activity coefficient of C=CC=C [1,3-butadiene] + C1CCOCC1 in your reply.
RESULT: 1.01
